Molecular target: Glucose transporter (Leishmania mexicana)
Assay: ST_JUDE_LEISH: Cytotoxicity at 2uM final concentration against transgenic Leishmania Mexicana promastigotes LmGT2 that are glucose transport deficient and complemented with the L. Mexicana glucose transporter 2. Activity is measured by DNA content using SYBR green in vitro
Type: functional
Measurement type: inhibition (%)
Express your answer in %, writing the number without its unit.

// known answers, use as guide
Molecule	Reported value
O=S(=O)(c1ccccc1OC(F)(F)F)C1CC2CCC(C1)N2S(=O)(=O)c1cccc(C(F)(F)F)c1 (centres undefined)	0.73
Cc1nc(N)nc(N)c1CCCOc1ccccc1Br	2.57
COc1ccc(Nc2nccc(-c3cccc(NC(=O)c4cc5cc(F)ccc5[nH]4)c3)n2)cc1	-1.2

stdin: Read the entry `Nc1cccc(CNCc2ccc(-c3ccc(-c4nc5cc(F)ccc5[nH]4)s3)cc2)c1` and write its reported inhibition.
stdout: -1.11

stdin: Specify measured inhibition for `Cc1ccc(N2CCN(CCCCNC(=O)c3ccc(NC(=O)c4ccc(Cl)cc4)cc3)CC2)c(C)c1` .
stdout: 2.64

stdin: Recall and state the measured inhibition for `CC(C)(C)N1CCC(N(Cc2ccc(-c3ccc(C(F)(F)F)cc3)cc2)C(=O)Cn2c(CCc3cccc(F)c3F)cc(=O)c3ccccc32)CC1` .
stdout: 1.02

stdin: Entry `N[C@@H](CCNCc1ccc(-c2cccnc2)cc1)Cc1ccc(F)c(F)c1` needs its inhibition filled in; supply it.
stdout: 0.4

stdin: Give the reported value of inhibition for this record: `O=C(NCc1ccc(F)cc1)Nc1ccc(-c2cccc(-c3nc4cc(C(F)(F)F)ccc4[nH]3)c2)cc1`
stdout: -0.05

stdin: Tell us which inhibition value is on record for `C[C@@H](CC1CCCCC1)OC(=O)N(C)[C@@H]1CCN(C#N)C1`
stdout: 10.5

Data provenance: ChEMBL document CHEMBL3433997
